I'd appreciate it if you could supply pKd values for the items below.
# test_system: T1, NLpoly11S
# T1 chain: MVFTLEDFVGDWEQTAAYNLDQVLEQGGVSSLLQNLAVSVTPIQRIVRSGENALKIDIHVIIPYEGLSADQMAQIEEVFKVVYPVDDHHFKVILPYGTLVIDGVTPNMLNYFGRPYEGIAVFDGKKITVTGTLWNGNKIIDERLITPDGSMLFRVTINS
# experimental_details: luminescence complementation titration, one-site specific binding fit
Note on units: pKd is unitless, being -log10 of a concentration expressed in mol/L.

QUERY: Quick check: pKd of VTGYRLFEQAS (modifications not checked) [array2.23] ?
RESULT: 5.38

QUERY: Try this binder next: VTGYRLFQEES (modifications not checked) [array2.18]
RESULT: 4.17

QUERY: Try this binder next: VTGYRLFKKIL (modifications not checked) [array2.28]
RESULT: 7.12

QUERY: Try this binder next: VEGYRLFKQEL (modifications not checked) [array2.87]
RESULT: 4.90

QUERY: Try this binder next: VEGYRLFKEES (modifications not checked) [array2.63]
RESULT: 3.66

QUERY: Try this binder next: VTGYRLFEKES (modifications not checked) [array2.21]
RESULT: 5.83

QUERY: Try this binder next: VEGYRLFQEIS (modifications not checked) [array2.70]
RESULT: 3.64

QUERY: Try this binder next: VTGYRLFKEES (modifications not checked) [array2.9]
RESULT: 5.41
